B1: glmS ribozyme (parent)
chain: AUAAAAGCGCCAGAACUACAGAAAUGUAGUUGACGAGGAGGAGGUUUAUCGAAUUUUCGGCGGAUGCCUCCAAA

- Variants of: B1
- experimental_details: self-cleavage kobs at 2500 uM GlcN6P; higher = faster cleavage; RNA array
- reported_conditions: with glucosamine-6-phosphate
Fewer inactive variants are shown than the library holds.
Can you tell me self-cleavage kobs at 2500 uM GlcN6P for the items I'm about to list?

Fill in self-cleavage kobs at 2500 uM GlcN6P for record G9U A36G A39U
< 1e-05 s⁻¹

Fill in self-cleavage kobs at 2500 uM GlcN6P for record A33U C34U G60C C68U
< 1e-05 s⁻¹

Fill in self-cleavage kobs at 2500 uM GlcN6P for record G44C C70A
< 1e-05 s⁻¹

Fill in self-cleavage kobs at 2500 uM GlcN6P for record G44U C61A
< 1e-05 s⁻¹

Fill in self-cleavage kobs at 2500 uM GlcN6P for record U30G G43U U47A U56A
< 1e-05 s⁻¹

Fill in self-cleavage kobs at 2500 uM GlcN6P for record U49G A53G U69G
4.58e-05 s⁻¹

Fill in self-cleavage kobs at 2500 uM GlcN6P for record U46G U69A
0.000306 s⁻¹

Fill in self-cleavage kobs at 2500 uM GlcN6P for record C58G C71A
4.27e-05 s⁻¹

Fill in self-cleavage kobs at 2500 uM GlcN6P for record C8G G37A
< 1e-05 s⁻¹

Fill in self-cleavage kobs at 2500 uM GlcN6P for record C8G G37U G41C U56A
< 1e-05 s⁻¹

Fill in self-cleavage kobs at 2500 uM GlcN6P for record U31G C67A
0.00123 s⁻¹
